Target: T1, T cell IL-4 receptor (IL-4Rα/IL-2Rγ) (human, UniProt P24394 26-825; P31785 23-369)
T1 sequence (looked up) 1: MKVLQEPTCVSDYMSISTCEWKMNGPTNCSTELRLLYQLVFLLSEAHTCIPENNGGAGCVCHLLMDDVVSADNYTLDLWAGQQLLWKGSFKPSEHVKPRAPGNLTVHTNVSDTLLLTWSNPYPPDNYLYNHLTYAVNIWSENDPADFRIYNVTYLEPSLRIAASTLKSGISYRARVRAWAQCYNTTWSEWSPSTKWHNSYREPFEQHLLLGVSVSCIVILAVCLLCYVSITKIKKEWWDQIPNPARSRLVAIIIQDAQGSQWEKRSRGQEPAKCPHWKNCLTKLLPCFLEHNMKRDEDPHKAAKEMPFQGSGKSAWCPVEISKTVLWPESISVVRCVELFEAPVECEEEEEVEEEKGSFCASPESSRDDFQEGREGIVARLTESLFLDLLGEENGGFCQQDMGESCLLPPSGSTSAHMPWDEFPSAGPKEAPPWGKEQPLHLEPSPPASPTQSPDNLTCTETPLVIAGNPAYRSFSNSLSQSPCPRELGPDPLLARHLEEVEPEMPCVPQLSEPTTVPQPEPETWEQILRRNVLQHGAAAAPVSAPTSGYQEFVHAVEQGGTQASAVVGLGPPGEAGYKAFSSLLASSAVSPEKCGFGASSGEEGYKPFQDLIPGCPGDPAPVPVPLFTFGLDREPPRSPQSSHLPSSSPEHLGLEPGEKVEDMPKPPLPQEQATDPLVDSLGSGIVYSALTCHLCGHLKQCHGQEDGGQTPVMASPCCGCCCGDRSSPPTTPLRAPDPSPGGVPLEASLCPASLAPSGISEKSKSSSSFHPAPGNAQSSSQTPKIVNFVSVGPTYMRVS
T1 sequence (looked up) 2: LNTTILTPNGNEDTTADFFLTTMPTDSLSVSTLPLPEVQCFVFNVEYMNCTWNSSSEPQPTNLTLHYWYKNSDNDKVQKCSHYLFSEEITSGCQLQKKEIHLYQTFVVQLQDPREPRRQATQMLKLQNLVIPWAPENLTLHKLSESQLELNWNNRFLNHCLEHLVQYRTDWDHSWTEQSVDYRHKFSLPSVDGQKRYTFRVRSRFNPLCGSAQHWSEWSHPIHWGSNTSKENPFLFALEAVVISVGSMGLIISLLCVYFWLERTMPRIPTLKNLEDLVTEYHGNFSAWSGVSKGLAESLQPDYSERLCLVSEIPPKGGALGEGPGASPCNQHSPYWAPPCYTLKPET
Test: cell-based or functional assay
ENDPOINT: 1° T cell proliferation, EC50, pM (pM)

binder="IL-4 mutein Y124A (ligand) HKCDITLQEIIKTLNSLTEQKTLCTELTVTDIFAASKNTTEKETFCRAATVLRQFYSHHEKDTRCLGATAQQFHRHKQLIRFLKRLDRNLWGLAGLNSCPVKEANQSTLENFLERLKTIMREKASKCSS" unit_info=pM experimental_value=150

[a] IL-4 mutein R121D (ligand) HKCDITLQEIIKTLNSLTEQKTLCTELTVTDIFAASKNTTEKETFCRAATVLRQFYSHHEKDTRCLGATAQQFHRHKQLIRFLKRLDRNLWGLAGLNSCPVKEANQSTLENFLERLKTIMDEKYSKCSS
[b] IL-4 mutein R121H (ligand) HKCDITLQEIIKTLNSLTEQKTLCTELTVTDIFAASKNTTEKETFCRAATVLRQFYSHHEKDTRCLGATAQQFHRHKQLIRFLKRLDRNLWGLAGLNSCPVKEANQSTLENFLERLKTIMHEKYSKCSS
[c] IL-4 mutein Y124S (ligand) HKCDITLQEIIKTLNSLTEQKTLCTELTVTDIFAASKNTTEKETFCRAATVLRQFYSHHEKDTRCLGATAQQFHRHKQLIRFLKRLDRNLWGLAGLNSCPVKEANQSTLENFLERLKTIMREKSSKCSS
Please order the records by their reported 1° T cell proliferation, EC50, pM, lowest number first. Form entry: labels listed in requested order.
a, b, c
(a: 100 pM, b: 150 pM, c: 425 pM)
